molecular target: topoisomerase II α (Homo sapiens)
Sequence (P11388 whole entry): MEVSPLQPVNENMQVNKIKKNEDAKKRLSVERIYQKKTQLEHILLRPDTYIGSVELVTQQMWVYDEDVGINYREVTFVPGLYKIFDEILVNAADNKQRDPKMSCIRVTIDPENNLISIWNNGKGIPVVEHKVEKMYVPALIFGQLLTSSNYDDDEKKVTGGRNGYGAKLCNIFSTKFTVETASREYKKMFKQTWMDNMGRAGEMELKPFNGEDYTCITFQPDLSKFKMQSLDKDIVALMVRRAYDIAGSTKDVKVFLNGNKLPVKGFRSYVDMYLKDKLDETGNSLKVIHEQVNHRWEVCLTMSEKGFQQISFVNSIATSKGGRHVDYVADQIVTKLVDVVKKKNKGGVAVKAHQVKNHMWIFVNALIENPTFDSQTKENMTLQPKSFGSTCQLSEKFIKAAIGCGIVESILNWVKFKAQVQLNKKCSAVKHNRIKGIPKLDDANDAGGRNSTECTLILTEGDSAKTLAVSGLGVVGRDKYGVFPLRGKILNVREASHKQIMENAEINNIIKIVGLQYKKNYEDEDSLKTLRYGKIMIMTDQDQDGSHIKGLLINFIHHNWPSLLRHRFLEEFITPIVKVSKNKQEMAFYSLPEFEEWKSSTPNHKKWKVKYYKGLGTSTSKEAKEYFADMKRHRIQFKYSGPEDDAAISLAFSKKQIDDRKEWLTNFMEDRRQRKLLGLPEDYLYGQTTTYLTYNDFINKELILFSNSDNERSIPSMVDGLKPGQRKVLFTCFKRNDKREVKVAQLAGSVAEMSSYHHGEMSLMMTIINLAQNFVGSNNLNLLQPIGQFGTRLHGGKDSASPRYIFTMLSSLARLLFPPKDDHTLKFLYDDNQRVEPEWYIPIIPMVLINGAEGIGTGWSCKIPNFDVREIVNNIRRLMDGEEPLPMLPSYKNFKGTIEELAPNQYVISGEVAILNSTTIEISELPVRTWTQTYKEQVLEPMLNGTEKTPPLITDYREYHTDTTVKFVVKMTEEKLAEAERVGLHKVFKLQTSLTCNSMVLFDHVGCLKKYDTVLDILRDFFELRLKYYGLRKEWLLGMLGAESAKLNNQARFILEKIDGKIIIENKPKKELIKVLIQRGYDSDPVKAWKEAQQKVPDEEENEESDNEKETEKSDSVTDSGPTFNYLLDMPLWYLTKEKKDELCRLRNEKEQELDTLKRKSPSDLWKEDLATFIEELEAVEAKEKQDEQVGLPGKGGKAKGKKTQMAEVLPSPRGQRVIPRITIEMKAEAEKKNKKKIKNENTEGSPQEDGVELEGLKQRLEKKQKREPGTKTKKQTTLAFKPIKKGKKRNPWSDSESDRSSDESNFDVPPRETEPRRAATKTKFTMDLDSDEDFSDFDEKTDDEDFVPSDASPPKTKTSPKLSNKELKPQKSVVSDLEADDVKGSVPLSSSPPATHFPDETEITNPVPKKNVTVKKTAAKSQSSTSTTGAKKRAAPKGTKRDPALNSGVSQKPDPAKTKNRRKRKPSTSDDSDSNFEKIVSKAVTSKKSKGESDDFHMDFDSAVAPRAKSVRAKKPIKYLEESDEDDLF
pIC50: −log10 of the molar value.
Endpoint Label: pIC50

Request: API: value(readout=pIC50, system=topoisomerase II α (Homo sapiens)) for record NC1=NC(=O)C(=C2CCNC(=O)c3[nH]c(Br)cc32)N1 [hymenialdisine]
Result: < 5.00

###

# reported pIC50; entries follow
molecular target: GSK3-β (UniProt P18266); construct: GSK-3β was either purified from rabbit muscle or expressed in and purified from insect Sf9 cells [18]; assay: GSK-3β kinase assay (GS-1 peptide); type: biochemical, rabbit; conditions: 15 μM ATP; −(x) = no effect at highest concentration x tested; read-out: IC50 GSK3-β
pIC50: −log10 of the molar value.

Reference set, count: 4
| Compound | System Tested | pIC50 |
| --- | --- | --- |
| Nc1ncc(C2=CCNC(=O)c3[nH]c(Br)c(Br)c32)[nH]1 [stevensine/odiline] | GSK3-β (UniProt P18266) | < 4.00 |
| O=C1N[C@H]2n3c(cc(Br)c3Br)C(=O)N3CCC[C@]23N1 [dibromophakellstatin] | GSK3-β (UniProt P18266) | < 5.00 |
| NC1=NC(=O)/C(=C/CCNC(=O)c2cc(Br)c(Br)[nH]2)N1 [dispacamide A] | GSK3-β (UniProt P18266) | < 4.00 |
| Nc1nc([C@H]2[C@H](CNC(=O)c3cc(Br)c[nH]3)[C@@H](CNC(=O)c3cc(Br)c[nH]3)[C@@H]2c2c[nH]c(N)n2)c[nH]1 [sceptrin] | GSK3-β (UniProt P18266) | < 4.00 |

Lab note: next compound to report on.
Request: Given the entry O=C([O-])c1ccc[n+](CCOC(=O)c2cc(Br)c[nH]2)c1 [agelongine] , what pIC50 was observed with GSK3-β (UniProt P18266)?
Result: < 4.00
